# credit: patent US6391329B1

assay-text: Vapor pressure measurement of pyrethroid compounds with the vapor pressure measuring apparatus
experimental-conditions: 40° C.

{"columns": ["compound", "Vapor Pressure"],
 "data": [
  ["CC1(C)C(C=C(Cl)Cl)C1C(=O)OCc1c(F)c(F)cc(F)c1F (stereo not drawn)", "8.5 × 10^−4 mmHg"],
  ["C=CCC1=C(C)C(OC(=O)C2C(C)(C)C2(C)C)CC1=O (racemic)", "4.8 × 10^−3 mmHg"],
  ["C#CC(OC(=O)C1C(C=C(C)C)C1(C)C)/C(C)=C/CC (mixture of isomers)", "4.8 × 10^−3 mmHg"],
  ["C#CCc1ccc(COC(=O)C2C(C=C(C)C)C2(C)C)o1 (mixture of isomers)", "1.4 × 10^−3 mmHg"],
  ["CC(C)=CC1C(C(=O)OC(C#N)c2cccc(Oc3ccccc3)c2)C1(C)C (racemic)", "1.3 × 10^−5 mmHg"],
  ["CC(C)=CC1C(C(=O)OCc2coc(Cc3ccccc3)c2)C1(C)C (mixture of isomers)", "5.6 × 10^−5 mmHg"],
  ["CC(C)=CC1C(C(=O)OCN2C(=O)C3=C(CCCC3)C2=O)C1(C)C (stereo not drawn) [tetramethrin]", "3.2 × 10^−5 mmHg"],
  ["CC(C)=CC1C(C(=O)OCc2cccc(Oc3ccccc3)c2)C1(C)C (mixture of isomers)", "1.4 × 10^−5 mmHg"],
  ["CC1(C)C(C=C(Cl)Cl)C1C(=O)OCc1cccc(Oc2ccccc2)c1 (mixture of isomers)", "6.3 × 10^−6 mmHg"],
  ["CC(C)=CC1C(C(=O)OCN2C(=O)C3=C(CCCC3)C2=O)C1(C)C (mixture of isomers) [phthalthrin]", "3.8 × 10^−7 mmHg"],
  ["C#CCC1=C(C)C(OC(=O)C2C(C=C(C)C)C2(C)C)CC1=O (mixture of isomers)", "4.4 × 10^−4 mmHg"],
  ["COP(=O)(OC)OC=C(Cl)Cl", "7.1 × 10^−2 mmHg"]
]}
